Recorded solubility kinetic values for a group of compounds are listed next.
Conditions: buffer; pH 7.4; 200.0 µM
ATTRIBUTE MEASURED: solubility kinetic (µg/mL)

COMPOUND: COc1ccc(CCC(=O)Nc2ccc3c(c2)OCO3)cc1
ATTRIBUTE MEASURED: solubility kinetic
PREFIX OPERATOR: =
VALUE MEASURED: 7.3

COMPOUND: Cc1ccc2oc(C(=O)NC3CCS(=O)(=O)C3)c(C)c2c1 (stereo not given)
ATTRIBUTE MEASURED: solubility kinetic
PREFIX OPERATOR: =
VALUE MEASURED: 27.5

COMPOUND: Cc1ccc(OCCC(=O)OCC(=O)NC2CCCC2)cc1
ATTRIBUTE MEASURED: solubility kinetic
PREFIX OPERATOR: >
VALUE MEASURED: 45.8

COMPOUND: CC1CN(C(=S)Nc2cccc([N+](=O)[O-])c2)CC(C)O1 (stereo not given)
ATTRIBUTE MEASURED: solubility kinetic
PREFIX OPERATOR: >
VALUE MEASURED: 44.3

COMPOUND: CC(C)c1ccc(C(=O)NN2CCOCC2)cc1
ATTRIBUTE MEASURED: solubility kinetic
PREFIX OPERATOR: >
VALUE MEASURED: 37.2

COMPOUND: Cc1cccc(NC(=O)c2ccc(Cl)nc2)n1
ATTRIBUTE MEASURED: solubility kinetic
PREFIX OPERATOR: >
VALUE MEASURED: 37.2

COMPOUND: CN(CC(=O)NC1CCCCCC1)S(=O)(=O)c1cnc[nH]1
ATTRIBUTE MEASURED: solubility kinetic
PREFIX OPERATOR: >
VALUE MEASURED: 47.2

COMPOUND: COC(=O)c1ccc2c(=O)n(-c3ccc(OC)cc3)c(=S)[nH]c2c1
ATTRIBUTE MEASURED: solubility kinetic
PREFIX OPERATOR: =
VALUE MEASURED: 1.5

COMPOUND: Cc1cccc2nc(-c3ccco3)oc(=O)c12
ATTRIBUTE MEASURED: solubility kinetic
PREFIX OPERATOR: =
VALUE MEASURED: 21.6

COMPOUND: Cc1noc(C)c1C(=O)OCC(=O)Nc1ncc(C(F)(F)F)cc1Cl
ATTRIBUTE MEASURED: solubility kinetic
PREFIX OPERATOR: =
VALUE MEASURED: 16.8

COMPOUND: O=C(O)c1ccc2c(=O)n3c(nc2c1)/C(=C/c1cccc(O)c1)CC3
ATTRIBUTE MEASURED: solubility kinetic
PREFIX OPERATOR: >
VALUE MEASURED: 50.1

COMPOUND: Cn1c(/C=C/c2ccccc2)nc2ccccc21
ATTRIBUTE MEASURED: solubility kinetic
PREFIX OPERATOR: =
VALUE MEASURED: 21.9

COMPOUND: O=C(NCCNC(=O)c1ccccn1)c1ccc(-c2ccccc2)cc1
ATTRIBUTE MEASURED: solubility kinetic
PREFIX OPERATOR: =
VALUE MEASURED: 3.3

COMPOUND: CCC1(OC(=O)c2ccccc2)CC(C)N(C)CC1C.Cl (stereo not given)
ATTRIBUTE MEASURED: solubility kinetic
PREFIX OPERATOR: =
VALUE MEASURED: 30.3

COMPOUND: S=C([S-])N1CCCC1.[NH4+]
ATTRIBUTE MEASURED: solubility kinetic
PREFIX OPERATOR: =
VALUE MEASURED: 16.6

COMPOUND: CNCC(=O)O
ATTRIBUTE MEASURED: solubility kinetic
PREFIX OPERATOR: =
VALUE MEASURED: 5.6

COMPOUND: Cc1nnc(SC(C)C(=O)Nc2ccc(Cl)cc2Cl)[nH]c1=O (stereo not given)
ATTRIBUTE MEASURED: solubility kinetic
PREFIX OPERATOR: >
VALUE MEASURED: 53.9

COMPOUND: CS(=O)(=O)N1CCCC(C(=O)Nc2ccccc2F)C1 (stereo not given)
ATTRIBUTE MEASURED: solubility kinetic
PREFIX OPERATOR: >
VALUE MEASURED: 45.1

COMPOUND: CCOC(=O)c1sc(-c2ccc(Cl)cc2Cl)nc1O
ATTRIBUTE MEASURED: solubility kinetic
PREFIX OPERATOR: =
VALUE MEASURED: 28.2

COMPOUND: COc1ccc(/C(N)=N/OC(=O)CC2CCCCC2)cc1OC
ATTRIBUTE MEASURED: solubility kinetic
PREFIX OPERATOR: =
VALUE MEASURED: 19.1

COMPOUND: O=[N+]([O-])c1cnc2ccc3ccccc3c2c1
ATTRIBUTE MEASURED: solubility kinetic
PREFIX OPERATOR: =
VALUE MEASURED: 3.1

COMPOUND: CC(C)=CC(=O)OCc1cc([N+](=O)[O-])cc2c1OCOC2
ATTRIBUTE MEASURED: solubility kinetic
PREFIX OPERATOR: =
VALUE MEASURED: 3.3

COMPOUND: Cc1cc(C(=O)O)ccc1-n1c(C)cc(/C=C2\SC(=O)NC2=O)c1C
ATTRIBUTE MEASURED: solubility kinetic
PREFIX OPERATOR: >
VALUE MEASURED: 53.5

COMPOUND: Nn1c(C2CCCCC2)nc2ccccc2c1=O
ATTRIBUTE MEASURED: solubility kinetic
PREFIX OPERATOR: >
VALUE MEASURED: 36.5

COMPOUND: O=C(NCCc1ccccc1)c1cnc(Cl)c(Cl)c1
ATTRIBUTE MEASURED: solubility kinetic
PREFIX OPERATOR: =
VALUE MEASURED: 11.6

COMPOUND: O=C(NCc1ccccc1Cl)c1ccc[nH]1
ATTRIBUTE MEASURED: solubility kinetic
PREFIX OPERATOR: =
VALUE MEASURED: 31.5

COMPOUND: CCOC(=O)N1CCC(NS(=O)(=O)c2ccc(C)c(Cl)c2)CC1
ATTRIBUTE MEASURED: solubility kinetic
PREFIX OPERATOR: >
VALUE MEASURED: 54.1

COMPOUND: Cc1cc(C)cc(NC(=O)C2CCN(c3cnccn3)CC2)c1
ATTRIBUTE MEASURED: solubility kinetic
PREFIX OPERATOR: =
VALUE MEASURED: 13.7

COMPOUND: O=C(CS(=O)(=O)c1ccccc1)NC1CCCCC1
ATTRIBUTE MEASURED: solubility kinetic
PREFIX OPERATOR: >
VALUE MEASURED: 42.2

COMPOUND: O=[N+]([O-])c1ccccc1Oc1ncccc1[N+](=O)[O-]
ATTRIBUTE MEASURED: solubility kinetic
PREFIX OPERATOR: =
VALUE MEASURED: 27.3

COMPOUND: S=C(NCCCCc1ccccc1)NCc1ccccc1
ATTRIBUTE MEASURED: solubility kinetic
PREFIX OPERATOR: =
VALUE MEASURED: 7

COMPOUND: C=CCn1c(C)nnc1SCC(=O)NC1CC1
ATTRIBUTE MEASURED: solubility kinetic
PREFIX OPERATOR: >
VALUE MEASURED: 37.9

COMPOUND: Cc1cc(NC(=O)CSCc2ccc([N+](=O)[O-])cc2)no1
ATTRIBUTE MEASURED: solubility kinetic
PREFIX OPERATOR: =
VALUE MEASURED: 24.6

COMPOUND: CC(C)C(C)NC(=O)CN1C(=O)NC2(CCc3ccccc32)C1=O (stereo not given)
ATTRIBUTE MEASURED: solubility kinetic
PREFIX OPERATOR: >
VALUE MEASURED: 49.4

COMPOUND: CC(NS(=O)(=O)c1ccccc1Cl)C1CC2CCC1C2 (stereo not given)
ATTRIBUTE MEASURED: solubility kinetic
PREFIX OPERATOR: =
VALUE MEASURED: 1.1

COMPOUND: Cc1ccc(N=C2C(=O)Nc3ccc(C)c(Br)c32)cc1
ATTRIBUTE MEASURED: solubility kinetic
PREFIX OPERATOR: =
VALUE MEASURED: 32.6

COMPOUND: CN(C(=O)COc1cccc(C#N)c1)C1CCS(=O)(=O)C1 (stereo not given)
ATTRIBUTE MEASURED: solubility kinetic
PREFIX OPERATOR: >
VALUE MEASURED: 46.3

COMPOUND: CC(=O)Nc1ccc(OC(=O)N2CCCC2)cc1
ATTRIBUTE MEASURED: solubility kinetic
PREFIX OPERATOR: >
VALUE MEASURED: 37.2

COMPOUND: O=C(CCCOc1ccc(Cl)cc1Cl)NCc1ccncc1
ATTRIBUTE MEASURED: solubility kinetic
PREFIX OPERATOR: =
VALUE MEASURED: 43.6

COMPOUND: Cc1cccc2sc(N(CCN(C)C)C(=O)c3ccc4ccccc4c3)nc12.Cl
ATTRIBUTE MEASURED: solubility kinetic
PREFIX OPERATOR: =
VALUE MEASURED: 0.4

COMPOUND: CC(C)S(=O)(=O)C/C(N)=N/OC(=O)c1cc(Cl)cc(Cl)c1
ATTRIBUTE MEASURED: solubility kinetic
PREFIX OPERATOR: =
VALUE MEASURED: 34.5

COMPOUND: O=C(NNC(=O)c1ccccc1-n1cccc1)c1ccc(F)cc1
ATTRIBUTE MEASURED: solubility kinetic
PREFIX OPERATOR: >
VALUE MEASURED: 48.5

COMPOUND: O=C(Nc1ccc2c(c1)OCCO2)c1cccnc1Oc1ccccc1
ATTRIBUTE MEASURED: solubility kinetic
PREFIX OPERATOR: =
VALUE MEASURED: 4

COMPOUND: COc1cccc(CNC(=O)COC(=O)/C=C/c2ccc(SC)cc2)c1
ATTRIBUTE MEASURED: solubility kinetic
PREFIX OPERATOR: =
VALUE MEASURED: 3.8

COMPOUND: O=C(CCN=C1NS(=O)(=O)c2ccccc21)Nc1ccc(F)cc1Cl
ATTRIBUTE MEASURED: solubility kinetic
PREFIX OPERATOR: >
VALUE MEASURED: 57.3

COMPOUND: Cl.Nc1nc2ccccc2n1C(=O)c1cccs1
ATTRIBUTE MEASURED: solubility kinetic
PREFIX OPERATOR: =
VALUE MEASURED: 2

COMPOUND: Cc1ccc(C(=O)Nc2ccccc2C(=O)NCC2CCCO2)cc1 (stereo not given)
ATTRIBUTE MEASURED: solubility kinetic
PREFIX OPERATOR: >
VALUE MEASURED: 50.8

COMPOUND: O=C1N(Cc2ccccc2)c2ccccc2C12OCCO2
ATTRIBUTE MEASURED: solubility kinetic
PREFIX OPERATOR: =
VALUE MEASURED: 28.9

COMPOUND: COC(=O)c1c(NC(=O)C(Cl)Cl)sc2c1C(C(=O)OC)CC2 (stereo not given)
ATTRIBUTE MEASURED: solubility kinetic
PREFIX OPERATOR: =
VALUE MEASURED: 8.6

COMPOUND: O=C1CCCN1CCCNC(=S)Nc1ccc(F)c(Cl)c1
ATTRIBUTE MEASURED: solubility kinetic
PREFIX OPERATOR: >
VALUE MEASURED: 49.5
